Give measured Activity for each item. Keep answers brief.
System: MCF7
experimentalDetails: Cytotoxicity against human MCF7 cells at 80 ug/ml after 24 hrs by MTT assay
Format: functional
One number for each entry, in %.

Recorded results for 8 compounds are shown here.
Cn1cnnc1SCC(=O)Nc1ccc(-c2nc(-c3ccccc3)c(-c3ccccc3)n2C)cc1    89.3
CCN1CCN(CC(=O)Nc2ccc(-c3nc(-c4ccccc4)c(-c4ccccc4)n3C)cc2)CC1    46.3
Cn1c(-c2ccc(NC(=O)CN3CCN(Cc4ccccc4)CC3)cc2)nc(-c2ccccc2)c1-c1ccccc1    49.5
CN1CCN(CC(=O)Nc2ccc(-c3nc(-c4ccccc4)c(-c4ccccc4)n3C)cc2)CC1    50.3
Cn1c(-c2ccc(NC(=O)CSc3nc4ccccc4o3)cc2)nc(-c2ccccc2)c1-c1ccccc1    76.3
Cn1ccnc1SCC(=O)Nc1ccc(-c2nc(-c3ccccc3)c(-c3ccccc3)n2C)cc1    64
Cn1nnnc1SCC(=O)Nc1ccc(-c2nc(-c3ccccc3)c(-c3ccccc3)n2C)cc1    77.7
Cn1c(-c2ccc(NC(=O)CN3CCN(c4ccccc4)CC3)cc2)nc(-c2ccccc2)c1-c1ccccc1    72.5

// for each compound below, give its Activity
1. Cn1c(-c2ccc(NC(=O)CSc3nc4ccccc4s3)cc2)nc(-c2ccccc2)c1-c1ccccc1
2. Cn1c(-c2ccc(NC(=O)CN3CCN(Cc4ccc(Cl)cc4)CC3)cc2)nc(-c2ccccc2)c1-c1ccccc1
3. CN(C)CCN1CCN(CC(=O)Nc2ccc(-c3nc(-c4ccccc4)c(-c4ccccc4)n3C)cc2)CC1
4. Cn1c(-c2ccc(NC(=O)CCl)cc2)nc(-c2ccccc2)c1-c1ccccc1
5. Cc1nnc(SCC(=O)Nc2ccc(-c3nc(-c4ccccc4)c(-c4ccccc4)n3C)cc2)s1

1. 76.6
2. 52.9
3. 34.7
4. 70
5. 85.2

Any idea what Activity came out for Cn1c(-c2ccc(NC(=O)CSC3=NCCS3)cc2)nc(-c2ccccc2)c1-c1ccccc1 on MCF7?
70
